Sourced from patent US20230117324A1

Biological target: MAGL (recombinant wild-type) (Homo sapiens)
Assay: MAGL inhibition, 4-NPA assay (hydrolysis of 4-nitrophenylacetate, absorbance at 405 nm)
Conditions: 4-NPA assay (footnote [a]: values not marked [b])
pIC50: −log10 of the molar value.
VALUE KIND: pIC50

# COMPOUND, VALUE KIND, REPORTED VALUE
rows = [
    ("O=C1CO[C@H]2CCN(C(=O)N3CCC(C(F)(F)c4ccc(F)cc4Cl)CC3)C[C@H]2N1 (single isomer, unassigned) [Example 39]", "pIC50", 7.68),
]

1: CC(C)(C)[Si](C)(C)OCCn1cc(C2CCN(C(=O)N3CC[C@@H]4OCC(=O)N[C@@H]4C3)CC2)c2cc(Cl)ccc21 (single isomer, unassigned) [Example 24]
2: O=C1CO[C@H]2CCN(C(=O)N3CCC([C@H](CCO)c4ccc(F)cc4)CC3)C[C@H]2N1 (single isomer, unassigned) [Example 32]
Quick check, higher pIC50 between 1 and 2 ? Give the label under which the chosen entry appears. 1
(1: 9.15, 2: 6.69)

====

Target: MAGL (recombinant wild-type) (Homo sapiens)
Test: MAGL inhibition, 4-NPA assay (hydrolysis of 4-nitrophenylacetate, absorbance at 405 nm)
Conditions: 4-NPA assay (footnote [a]: values not marked [b])
VALUE KIND: IC50 (nM)

Worked examples follow.
# MOLECULE, MEASURE UNIT, IC50
rows = [
    ("O=C1CO[C@H]2CCN(C(=O)N3CCN(C(c4ccc(F)cc4)c4ccc(F)cc4)CC3)C[C@H]2N1 (relative stereo) [Example 11]", "nM", 8),
    ("CC(Oc1ccc(F)cc1Cl)C1CCN(C(=O)N2CC[C@@H]3OCC(=O)N[C@@H]3C2)CC1 (mixture of isomers)", "nM", 2),
    ("O=C1CO[C@H]2CCN(C(=O)N3CCN(C(c4ccc(F)cc4)c4ccc(F)cc4)CC3)C[C@H]2N1 (racemic) [Example 12]", "nM", 12),
    ("O=C1CO[C@H]2CCN(C(=O)N3CC(C(c4ccc(F)cc4)c4ccc(F)cc4)C3)C[C@H]2N1", "nM", 1200),
    ("O=C1CO[C@H]2CCN(C(=O)N3CCC(c4cn(CCO)c5ccc(Cl)cc45)CC3)C[C@H]2N1 (single isomer, unassigned)", "nM", 2),
    ("O=C1CO[C@H]2CCN(C(=O)N3CCC(c4ccc(OC(F)(F)F)cn4)CC3)C[C@H]2N1 (single isomer, unassigned)", "nM", 644),
    ("CC(c1ccc(C(F)(F)F)cc1)C1CCN(C(=O)N2CC[C@@H]3OCC(=O)N[C@@H]3C2)CC1 (mixture of isomers)", "nM", 5),
    ("O=C1CO[C@H]2CCN(C(=O)N3CCC(c4cn(CC5CC5)c5ccc(Cl)cc45)CC3)C[C@H]2N1 (racemic)", "nM", 2),
]

1: O=C1CO[C@H]2CCN(C(=O)N3CCC(c4cn(C5CC5)c5ccc(Cl)cc45)CC3)C[C@H]2N1 (single isomer, unassigned)
2: O=C1CO[C@H]2CCN(C(=O)N3CCC(c4c[nH]c5cc(F)ccc45)CC3)C[C@H]2N1 (relative stereo) [Example 5]
3: Cn1cc(C2CCN(C(=O)N3CC[C@@H]4OCC(=O)N[C@@H]4C3)CC2)c2cc(Cl)ccc21 (racemic)
4: O=C1CO[C@H]2CCN(C(=O)N3CCC(c4noc5ccc(F)cc45)CC3)C[C@H]2N1 (racemic)
5: O=C1CO[C@@H]2CCN(C(=O)N3CCN(C(c4ccc(F)cc4)c4ccc(F)cc4)CC3)C[C@@H]2N1 (stereo in doubt)
# rank_down: sort by IC50, max first Response field: labels, in requested order. 4, 5, 2, 3, 1

====

Protein target, amino acids: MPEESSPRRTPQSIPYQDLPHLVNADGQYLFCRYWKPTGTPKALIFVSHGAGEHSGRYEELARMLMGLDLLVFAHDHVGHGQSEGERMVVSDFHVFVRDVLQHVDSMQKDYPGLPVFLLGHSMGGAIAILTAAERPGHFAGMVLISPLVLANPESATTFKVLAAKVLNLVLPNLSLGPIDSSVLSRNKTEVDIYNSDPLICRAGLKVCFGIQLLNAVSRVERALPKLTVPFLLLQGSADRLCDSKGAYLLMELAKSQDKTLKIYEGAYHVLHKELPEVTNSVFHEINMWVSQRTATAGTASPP
pIC50: −log10 of the molar value.
VALUE KIND: pIC50

Sample answers from the record:
# COMPOUND, pIC50
records = [
    ("CCNC(=O)c1cc(C)ccc1-c1ccc(C2CN(C(=O)N3CC[C@@H]4OCC(=O)N[C@@H]4C3)C2)cc1 [Example 260]", 8.52),
    ("O=C1CO[C@H]2CCN(C(=O)N3CC(c4ccc(N5CC(C(F)(F)F)C5)cc4)C3)C[C@H]2N1 [Example 129]", 8.70),
    ("CC(OC1CN(C(=O)N2CC[C@@H]3OCC(=O)N[C@@H]3C2)C1)c1ccc(C(F)(F)F)cc1 (single isomer, unassigned) [Example 114]", 7.31),
    ("O=C1CO[C@H]2CCN(C(=O)N3CC(c4ccc(Cl)cn4)C3)C[C@H]2N1 [Example 181]", 6.23),
    ("O=C1CO[C@H]2CCN(C(=O)N3CCC(C(c4ccc(F)cc4)c4nc(C5CC5)no4)CC3)C[C@H]2N1 (single isomer, unassigned) [Example 94]", 8.70),
]

P: O=C1CO[C@H]2CCN(C(=O)N3CC(c4nnc(-c5ccc(Cl)cc5Cl)o4)C3)C[C@H]2N1 [Example 253]
Q: COC(=O)C(C)(C)c1ccc(C2CN(C(=O)N3CC[C@@H]4OCC(=O)N[C@@H]4C3)C2)cc1 [Example 234]
R: O=C1CO[C@H]2CCN(C(=O)N3CC(C(O)(c4ccc(F)cc4)c4ccc(F)cc4)C3)C[C@H]2N1 [Example 54]
S: COc1ccc(C2CN(C(=O)N3CC[C@@H]4OCC(=O)N[C@@H]4C3)C2)cn1 [Example 183]
T: Cc1cccc(-c2ccc(C3CN(C(=O)N4CC[C@@H]5OCC(=O)N[C@@H]5C4)C3)cc2)c1 [Example 143]
Give the ascending ranking of the items by reported pIC50. Output spec: labels arranged per the requested ranking. S, R, P, Q, T
(S: 5.80, R: 6.09, P: 8.40, Q: 8.70, T: 9.00)

====

Target: MAGL (recombinant wild-type) (Homo sapiens)
Assay: MAGL inhibition, 4-NPA assay (hydrolysis of 4-nitrophenylacetate, absorbance at 405 nm)
Conditions: 4-NPA assay (footnote [a]: values not marked [b])
pIC50: −log10 of the molar value.
VALUE KIND: pIC50

# COMPOUND, pIC50
data = [
    ("O=C1CO[C@H]2CCN(C(=O)N3CCC(C(c4ccc(F)cc4)c4ccc(F)cc4)CC3)C[C@H]2N1 (single isomer, unassigned)", 9.00),
    ("O=C1CO[C@@H]2CCN(C(=O)N3CCC(C(c4ccc(F)cc4)c4ccc(F)cc4)CC3)C[C@@H]2N1 (single isomer, unassigned)", 7.07),
    ("CC(F)(F)c1ccc(C2CCN(C(=O)N3CC[C@@H]4OCC(=O)N[C@@H]4C3)CC2)nc1 (single isomer, unassigned)", 6.31),
    ("O=C1CO[C@H]2CCN(C(=O)N3CCC(c4cncc(C(F)(F)F)c4)CC3)C[C@H]2N1", 6.15),
    ("COC(c1ccc(F)cc1)C1CCN(C(=O)N2CC[C@@H]3OCC(=O)N[C@@H]3C2)CC1 (mixture of isomers)", 7.04),
    ("O=C1CO[C@H]2CCN(C(=O)N3CCC(C(F)(F)c4ccc(C(F)(F)F)cc4)CC3)C[C@H]2N1", 7.60),
]

a: O=C1CO[C@H]2CCN(C(=O)N3CCC(c4c[nH]c5cc(F)ccc45)CC3)C[C@H]2N1 (racemic) [Example 7]
b: O=C1CO[C@H]2CCN(C(=O)N3CCC(c4cn(CC5COC5)c5ccc(Cl)cc45)CC3)C[C@H]2N1 (single isomer, unassigned)
Task for the reader: decide whether a or b has the larger pIC50. Provide the label of your selected option as the answer. b

====

Read-out record for MAGL (Homo sapiens, UniProt Q99685): IC50
VALUE KIND: IC50 (nM)

See these solved cases before continuing.
# COMPOUND, VALUE KIND, MEASURE UNIT, REPORTED VALUE
measured = [
    ("Cc1noc(CC(c2ccc(F)cc2)C2CCN(C(=O)N3CC[C@@H]4OCC(=O)N[C@@H]4C3)CC2)n1 (stereo partly drawn) [Example 51]", "IC50", "nM", 63),
    ("Cc1ccc(C(c2ccc(F)cc2)C2CCN(C(=O)N3CC[C@@H]4OCC(=O)N[C@@H]4C3)CC2)cc1 (single isomer, unassigned) [Example 72]", "IC50", "nM", 0.1),
    ("COc1ccc(C(c2cccnc2)C2CCN(C(=O)N3CC[C@@H]4OCC(=O)N[C@@H]4C3)CC2)cc1OC (single isomer, unassigned) [Example 136]", "IC50", "nM", 14),
    ("O=C1CO[C@H]2CCN(C(=O)N3CC(c4ccc(Br)c(Cl)c4)C3)C[C@H]2N1 [Example 132]", "IC50", "nM", 10),
]

I: COc1ccc(C(c2cccnc2)C2CCN(C(=O)N3CC[C@@H]4OCC(=O)N[C@@H]4C3)CC2)cc1OC (single isomer, unassigned) [Example 135]
II: O=C1CO[C@H]2CCN(C(=O)N3CC(O)(c4ccc(Br)cc4)C3)C[C@H]2N1 [Example 123]
III: O=C1CO[C@H]2CCN(C(=O)N3CC(c4ccc(N5CCCC5C5CC5)cc4)C3)C[C@H]2N1 (stereo partly drawn) [Example 167]
IV: O=C1CO[C@H]2CCN(C(=O)N3CCC(c4cc(Cl)cc(OCC(F)(F)F)c4)C3)C[C@H]2N1 (single isomer, unassigned) [Example 238]
V: O=C1CO[C@H]2CCN(C(=O)N3CC(c4ccc(-c5ccccc5)cc4)C3)C[C@H]2N1 [Example 141]
Task field, ranking: reported IC50, descending order. Order the labels as requested and give them as your answer. II, IV, I, V, III
